PROTOCOL_DETAILS: Half life in Beagle dog at 1 mg/kg, iv
Format: ADME, organism-based, Canis lupus familiaris
PROTOCOL_CONDITIONS: in vivo
OBSERVATION_TYPE: half-life
Kindly report the value followed by its unit.

So for C#CCOc1cnc(C(=O)Nc2cc(F)c(F)c([C@@]3(C)N=C(N)S[C@@]4(COC)C[C@H]43)c2)cn1 , the logged half-life turned out to be 2 h

---

PROTOCOL_DETAILS: Oral bioavailability in cynomolgus monkey at 3 mg/kg
Type: ADME, organism-based, Macaca fascicularis
PROTOCOL_CONDITIONS: in vivo
OBSERVATION_TYPE: bioavailability (%)
Hi! Could you send only the number? It should be in %, unit omitted.

In plain terms, C#CCOc1cnc(C(=O)Nc2cc(F)c(F)c([C@@]3(C)N=C(N)S[C@@]4(COC)C[C@H]43)c2)cn1 has a documented bioavailability of 28

---

Measured microsomal CLint at 1 µM, listed per entry for reference.
PROTOCOL_DETAILS: Stability in rat liver microsomes at 1 uM measured after 30 mins in presence of NADPH
Type: ADME, Microsome
PROTOCOL_CONDITIONS: read-out: Stability
// return numeric value only (unit: µL/min/mg, not printed)

The following molecules have reported results that may help.
C#CCOc1cnc(C(=O)Nc2cc(F)c(F)c([C@@]3(C)N=C(N)S[C@@]4(CF)C[C@H]43)c2)cn1 | 87
C#CCOc1cnc(C(=O)Nc2cc(F)c(F)c([C@@]3(C)N=C(N)S[C@@]4(COC)C[C@H]43)c2)cn1 | 84

Attention now turns to another entry.
Per the record, COC[C@]12C[C@H]1[C@@](C)(c1cc(NC(=O)c3cnc(OCCC(F)(F)F)cn3)cc(F)c1F)N=C(N)S2 has microsomal CLint at 1 µM of 156

---

PROTOCOL_DETAILS: Oral bioavailability in rat at 3 mg/kg
Format: ADME, organism-based
PROTOCOL_CONDITIONS: in vivo
OBSERVATION_TYPE: bioavailability (%)
Write it as a number; the unit % goes unstated.

Just so you know, measured bioavailability for C#CCOc1cnc(C(=O)Nc2cc(F)c(F)c([C@@]3(C)N=C(N)S[C@@]4(COC)C[C@H]43)c2)cn1 came out at 48

---

PROTOCOL_DETAILS: Volume of distribution at steady state in rat at 1 mg/kg, iv
Assay type: ADME, organism-based
PROTOCOL_CONDITIONS: in vivo, read-out: Vdss
OBSERVATION_TYPE: Vd

get_value(item= C#CCOc1cnc(C(=O)Nc2cc(F)c(F)c([C@@]3(C)N=C(N)S[C@@]4(COC)C[C@H]43)c2)cn1 , readout=Vd) returns 1.7 L/kg

---

PROTOCOL_DETAILS: Stability in dog liver microsomes at 0.5 uM measured after 30 mins in presence of NADPH
Format: ADME, Canis lupus familiaris, Microsome
PROTOCOL_CONDITIONS: read-out: Stability
OBSERVATION_TYPE: microsomal CLint at 0.5 µM
Hi, when you answer, please include the unit after the number. Thanks!

Form field microsomal CLint at 0.5 µM, entry C#CCOc1cnc(C(=O)Nc2cc(F)c(F)c([C@@]3(C)N=C(N)S[C@@]4(COC)C[C@H]43)c2)cn1 : 62 µL/min/mg
